experimentalSystem: mu opiate receptor (MOR) (Rattus norvegicus)
Construct: from tissue; host or cells: striatum (membrane preparation)
Format: biochemical
Quick rule for you: Concentration of FLNA-Binding Compound as Agonist 1 μM + BFNA at 80% or higher means fulfilled, lower means not fulfilled.

Query :: Does Concentration of FLNA-Binding Compound as Agonist 1 μM + BFNA meet or surpass 80% for OC(COc1ccc(Br)c(F)c1)CN1CCSCC1 (centres unmarked) [Compound A0059] ?
Result :: fulfilled

Query :: Does Concentration of FLNA-Binding Compound as Agonist 1 μM + BFNA meet or surpass 80% for C[C@@H](NC(=O)[C@@H](N)Cc1ccc(O)cc1)C(=O)NCC(=O)N(C)[C@@H](Cc1ccccc1)C(=O)NCCO [DAMGO, reference compound] ?
Result :: not fulfilled

Query :: Does Concentration of FLNA-Binding Compound as Agonist 1 μM + BFNA meet or surpass 80% for CC1CCC(C(C)C)C(OCC(O)CN2CCSCC2)C1 (centres unmarked) [Compound A0003] ?
Result :: not fulfilled

Query :: Does Concentration of FLNA-Binding Compound as Agonist 1 μM + BFNA meet or surpass 80% for CC1CCC(C(C)C)C(OCC(O)CN2CCC(=O)C(C)C2)C1 (centres unmarked) [Compound A0056] ?
Result :: not fulfilled

Query :: Does Concentration of FLNA-Binding Compound as Agonist 1 μM + BFNA meet or surpass 80% for CC1CCC(C(C)C)C(OCC(O)Cn2ccc3ccccc32)C1 (centres unmarked) [Compound A0078] ?
Result :: fulfilled

Query :: Does Concentration of FLNA-Binding Compound as Agonist 1 μM + BFNA meet or surpass 80% for CC(=O)c1ccc(S(=O)(=O)N2CCC3(CC2)OCCN3S(=O)(=O)c2ccc(C(C)=O)cc2)cc1 [Compound C0011] ?
Result :: not fulfilled

Query :: Does Concentration of FLNA-Binding Compound as Agonist 1 μM + BFNA meet or surpass 80% for COc1ccc(S(=O)(=O)N2CCC3(CC2)OCCN3S(=O)(=O)c2ccc(C(C)=O)cc2)cc1 [Compound C0048] ?
Result :: fulfilled

====

experimentalSystem: mu opiate receptor (MOR) (Rattus norvegicus)
Construct: from tissue; host or cells: striatum (membrane preparation)
Type: biochemical
conditionContext: 1 μM compound + 1 μM β-FNA (selective MOR antagonist); Series C-2
testReadout: [35S]GTPγS binding, FLNA-Binding Compound as Agonist at 1 μM + BFNA (%)
Provide the reading as a plain figure in %.

The following molecules have reported results that may help.
molecule | unitText | dataValue
CC(=O)c1ccc(S(=O)(=O)N2CCOC23CCN(CC(=O)O)CC3)cc1 [Compound C0100M] | % | 195.6
CCOC(=O)CN1CCC2(CC1)OCCN2S(=O)(=O)c1ccc(C(C)=O)cc1 [Compound C0099M] | % | 114.7
CCCCN1CCC2(CC1)OCCN2S(=O)(=O)c1ccc(OC)cc1 [Compound C0102M] | % | 150.4

Recorded [35S]GTPγS binding, FLNA-Binding Compound as Agonist at 1 μM + BFNA (molecule CC(=O)c1ccc(S(=O)(=O)N2CC(CN(C)C)OC23CCN(C)CC3)cc1 (stereo not shown) [Compound C0108M] ): 76.9

====

experimentalSystem: mu opiate receptor (MOR) (Rattus norvegicus, UniProt P33535)
Construct: from tissue; host or cells: striatum (membrane preparation)
Sequence (P33535 whole entry): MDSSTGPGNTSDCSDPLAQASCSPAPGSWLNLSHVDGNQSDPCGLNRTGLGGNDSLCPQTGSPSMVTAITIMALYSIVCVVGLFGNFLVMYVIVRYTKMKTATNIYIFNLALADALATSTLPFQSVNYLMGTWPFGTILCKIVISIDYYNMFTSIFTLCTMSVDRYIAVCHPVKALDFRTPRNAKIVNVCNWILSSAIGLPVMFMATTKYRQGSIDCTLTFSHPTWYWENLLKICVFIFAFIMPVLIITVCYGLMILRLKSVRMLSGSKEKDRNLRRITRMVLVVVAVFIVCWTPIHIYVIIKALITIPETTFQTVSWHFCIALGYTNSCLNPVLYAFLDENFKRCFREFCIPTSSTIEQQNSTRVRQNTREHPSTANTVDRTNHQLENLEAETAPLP
Type: biochemical
Protocol: To assess the mu opiate receptor (MOR) agonist activity of positive compounds from the FLNA screening, compounds were tested in a [^35S]GTPγS binding assay using striatal membranes. […] The immunocomplexes so formed were collected by incubation at 25° C. for 30 minutes with 40 μl of agarose-conjugated protein A/G beads and centrifugation at 5,000×g at 4° C. for 5 minutes. […] The radioactivity in the suspension was determined by liquid scintillation spectrometry.
testReadout: % DAMGO + BFNA (%)
Provide the reading as a plain figure in %.

The following compounds have reported results that may help.
compound | % DAMGO + BFNA [%]
COc1ccc(S(=O)(=O)N2CCC3(CC2)OCCN3S(=O)(=O)c2ccc(C(C)=O)cc2)cc1 [Compound C0048] | 204.3
COc1cc(F)ccc1C(=O)CC1c2c(cc3c(c2OC)OCO3)CC[N+]1(C)C (stereo not shown) [Compound B0007] | 98.2
COc1c2c(cc3c1C(CC(=O)Cc1ccccc1C)[N+](C)(C)CC3)OCO2 (stereo not shown) [Compound B0031] | 65.6

Turning now to a further compound:
Recorded % DAMGO + BFNA (compound O=C1CN(Cc2ccccc2)C2(CCN(CC3CC3)CC2)N1 [Compound C0125M] ): 329.3
